tested on: UEA-1 binding sites on Caco-2 cell membrane preparations; assay: Two tier competition assay: compound incubated alone with membranes, biotinylated UEA-1 added in next step; set-up: species or system human; details: Table 8, galloyl constructs; read-out: IC 50 (uM) 2nd tier
Non-standard residues stand in square brackets, D forms with d. Residues, ends and D or L forms follow the SMILES beside them. *: point of attachment. Galloyl = O=C(c1cc(O)c(O)c(O)c1)*; Dab = NCC[CH](N)C(=O)O
PROPERTY LABEL: IC50

Here is how some compounds turned out for IC50.
COMPOUND | IC50
CC(=O)NC(CCNC(=O)c1cc(O)c(O)c(O)c1)C(=O)NC(CCNC(=O)c1cc(O)c(O)c(O)c1)C(=O)NC(CCNC(=O)c1cc(O)c(O)c(O)c1)C(N)=O (stereo not shown) | 1 µM
NC(=O)C(CCCNC(=O)c1cc(O)c(O)c(O)c1)NC(=O)C(CCCNC(=O)c1cc(O)c(O)c(O)c1)NC(=O)C(CCCNC(=O)c1cc(O)c(O)c(O)c1)NC(=O)c1cc(O)c(O)c(O)c1 (stereo not shown) | 1 µM
CC(=O)NC(CCNC(=O)c1cc(O)c(O)c(O)c1)C(=O)NC(CCNC(=O)c1cc(O)c(O)c(O)c1)C(=O)NC(CCNC(=O)c1cc(O)c(O)c(O)c1)C(=O)NC(CCNC(=O)c1cc(O)c(O)c(O)c1)C(N)=O (stereo not shown) [MSI 34 #22] (Ac-[Dab](Galloyl)[Dab](Galloyl)[Dab](Galloyl)[Dab](Galloyl)-NH2; configuration not given here) | 1 µM

Data request, read-out IC50, for CC(=O)N[C@H](CCCCNC(=O)c1cc(O)c(O)c(O)c1)C(=O)N[C@H](CCCCNC(=O)c1cc(O)c(O)c(O)c1)C(=O)N[C@H](CCCCNC(=O)c1cc(O)c(O)c(O)c1)C(=O)N[C@H](CCCCNC(=O)c1cc(O)c(O)c(O)c1)C(N)=O [MSI 39 #12] (Ac-[dK](Galloyl)[dK](Galloyl)[dK](Galloyl)[dK](Galloyl)-NH2)
2 µM
